Measured values drawn from PubChem BioAssay (NCI) for this set.

- Tested on: A549/ATCC NSCLC
- experiment description: NCI-60 one-dose screen, 48 h (100 = growth as untreated, 0 = no growth, -100 = all killed)
- particulars: 10 µM unless noted
This is part of a sample that, as a whole, favours compounds with a hit. Of some 83,000 tested, about 20% had one in any assay.

>  <compound>
O=C1/C(=C/N2N=C(c3ccc(Cl)cc3)CC2c2ccccc2O)SC(=S)N1c1cccc(C(F)(F)F)c1 (stereo not given)

>  <growth [%]>
38.6

$$$$
>  <compound>
COc1cccc(/C=N\Nc2ccc([N+](=O)[O-])cn2)c1O

>  <growth [%]>
57

$$$$
>  <compound>
CCCCCCCCCCCCC1CCC(=O)O1 (stereo not given)

>  <growth [%]>
87.4

$$$$
>  <compound>
O=C(O)C(CCc1ccccc1)NCc1ccccc1 (stereo not given)

>  <growth [%]>
99.7

$$$$
>  <compound>
CCOC(=O)c1ccc2c(c1)[n+](=O)c(C(=O)c1ccc3ccccc3c1)c(C(F)(F)F)n2[O-]

>  <growth [%]>
-26.4

$$$$

====

- Test system: COLO 205 colon
- experiment description: NCI-60 one-dose screen, 48 h
- particulars: 10 µM unless noted
About 83,000 compounds went through this panel and 20% of them were active in at least one assay; those are over-represented in the sample as a whole. Calls of active or inactive are those of the source. How the source made its calls: active means growth percent below 10; inactive means the rest.
Labels: active, inactive

>  <molecule>
CCCCCCCCCCCCC1CCC(=O)O1 (configuration not stated)

>  <experimental system>
COLO 205 colon

>  <classification>
inactive

$$$$
>  <molecule>
COc1ccc(-c2cc(C(=O)Nc3ccc(C)cc3)nc3[nH]c(=O)sc23)cc1

>  <experimental system>
COLO 205 colon

>  <classification>
inactive

$$$$
>  <molecule>
CCCCCCCCN=C(NCCCCCCCC)SCc1cccc2ccccc12

>  <experimental system>
COLO 205 colon

>  <classification>
active

$$$$
>  <molecule>
Cc1ccc(C)c(NC(=O)c2sc3c(=O)[nH]cnc3c2C)c1

>  <experimental system>
COLO 205 colon

>  <classification>
inactive

$$$$
>  <molecule>
NC(=O)N/N=C\c1ccc([N+](=O)[O-])o1

>  <experimental system>
COLO 205 colon

>  <classification>
inactive

$$$$
>  <molecule>
Nc1c(C(=O)Nc2ccccc2)sc2nc3c(cc12)C(=O)CCC3

>  <experimental system>
COLO 205 colon

>  <classification>
active

$$$$
>  <molecule>
Nc1ncnc2c1N=C(c1ccc3c(c1)OCO3)CC(c1ccc(Cl)cc1)N2 (configuration not stated)

>  <experimental system>
COLO 205 colon

>  <classification>
inactive

$$$$
>  <molecule>
Cc1cccc(/C=N/n2c(-c3ccc(Cl)cc3)nc3c(Br)cc(Br)cc3c2=O)c1

>  <experimental system>
COLO 205 colon

>  <classification>
inactive

$$$$
>  <molecule>
Cc1cccc(N=NC(=S)NNc2cccc(C)c2)c1

>  <experimental system>
COLO 205 colon

>  <classification>
inactive

$$$$
>  <molecule>
Oc1ccccc1-c1nnc(COc2ccc(Cl)cc2Cl)o1

>  <experimental system>
COLO 205 colon

>  <classification>
inactive

$$$$
>  <molecule>
C=C(COC(C)=O)[C@H]1CC/C(C)=C/CC/C(C)=C/CC[C@@]2(C)O[C@H]2C1

>  <experimental system>
COLO 205 colon

>  <classification>
inactive

$$$$
>  <molecule>
O=C1Nc2ccccc2/C1=C\c1nc(C2CCN(S(=O)(=O)c3ccc(F)cc3)CC2)n2ccccc12

>  <experimental system>
COLO 205 colon

>  <classification>
inactive

$$$$
>  <molecule>
CSC1=N/C(=C\c2cccc(OCc3ccc(Cl)cc3)c2)C(=O)N1

>  <experimental system>
COLO 205 colon

>  <classification>
inactive

$$$$
>  <molecule>
COc1ccc(NC(=O)Cn2c(=O)sc3c(-c4ccc(Cl)cc4)cc(-c4ccc(Cl)cc4)nc32)cc1

>  <experimental system>
COLO 205 colon

>  <classification>
inactive

$$$$
>  <molecule>
Cc1ccc(Nc2cccc3ccccc23)cc1

>  <experimental system>
COLO 205 colon

>  <classification>
inactive

$$$$
>  <molecule>
CCN(CC)C(=O)O/N=C(/C)c1ccccc1

>  <experimental system>
COLO 205 colon

>  <classification>
inactive

$$$$
>  <molecule>
Cc1c(C(=O)CCl)c(=O)n(-c2ccccc2)n1C

>  <experimental system>
COLO 205 colon

>  <classification>
inactive

$$$$
>  <molecule>
CCN(CC)CCNC(=O)n1cc(-c2ccncc2)c(-c2cc(Cl)cc(OC)c2)n1

>  <experimental system>
COLO 205 colon

>  <classification>
inactive

$$$$
>  <molecule>
N#Cc1ccc(-c2ccc(-c3cccs3)o2)cc1F

>  <experimental system>
COLO 205 colon

>  <classification>
inactive

$$$$
>  <molecule>
CCOC(=O)C1=C(C(=O)OCC)N(c2cc(OC)c(OC)c(OC)c2)C(N)=C(C#N)C1c1cc(=O)[nH]c2ccccc12 (configuration not stated)

>  <experimental system>
COLO 205 colon

>  <classification>
inactive

$$$$
>  <molecule>
O=c1c2cc(Cl)ccc2oc2ccc(OCCCCCN3CCCCC3)cc12

>  <experimental system>
COLO 205 colon

>  <classification>
inactive

$$$$
>  <molecule>
COc1cccc(/C=N\Nc2ccc([N+](=O)[O-])cn2)c1O

>  <experimental system>
COLO 205 colon

>  <classification>
inactive

$$$$
